The origin of these recorded values is patent US20260209316A1.

As shown below, each of these binders has a reported % inhibition of binding value.
- target.or.system: T1, mucin domain-deleted Sudan GP (GPdMuc) (Sudan virus (SUDV), UniProt Q7T9D9 33-632)
- T1 construct: also called Sudan GPdMuc; GP(S)dMuc
- method.description: BLI competition on Sudan GPdMuc (lower table); competitor 15H10
Express your answer in %, writing the number without its unit.

Previously resolved entries follow.
# binder, measured.quantity, unit, readout.value
data = [
    ("antibody 503S (antibody, V domains shown) VH: QVQLVQSGAEVKKPGASVRVSCKASGYTFTSYYMHWVRQAPGQGLEWMGQINPSGGTTRYERKFQGRITVTRDTSTSTVYLELSSLRSEDTASYFCACLRDKVTYYDLWSGVDSVWGQGTLVTVSS VL: DIQMTQSPSSLSASVGDRVTITCRASQDISTWLAWYQQKPEKAPKSLIYAASTLETGVPSRFSGSGSGTDFTLTISSLQPEDFATYYCEQYNGFPRTFGQGTKLDIK", "% inhibition of binding", "%", 27.8),
    ("antibody 294S (antibody, V domains shown) VH: QVQLQESGPGLVKPSQTLSLTCTVSGGSISSGGYHWSWIRQHPGKGLEWIGNIYYNGRTYYNPSLKSRVTISVDTSENEFSLKLSSVTAADTAVYYCARDRRRPRIGHDYGMDVWGQGTKVIVSS VL: DIQMTQSPSSLSASVGDRVTISCRASQSISNFLNWYQQKPGQAPKLLIYTASNLQSGVPSRFSGSGSGTDFTLTISSLQPEDFATYYCQQIYNTGMYSFGQGTKLEIKR", "% inhibition of binding", "%", 15.7),
    ("antibody 354S (antibody, V domains shown) VH: QVQLVQSGAEVKKPGASVKVSCKASGYSFASYYIHWVRQAPGQGLEWMGIINPSGGTTSYAQKFQGRVTMTRDTSTSTVYMELSSLGSEDTAVYYCARIVDRVTIYLNGVDNYWGQGTLVTVSS VL: EIVMTQSPATLSVSPGERVTLSCRASQSVSSNLAWFQQTPGQAPRLLIYGASTRASGVPARFSGSGSGTEFTLTISSLQSEDFAVYYCLQYNNWPPGWKYGFGQGTKLEIK", "% inhibition of binding", "%", 18.9),
]

Now consider a different binder.
So, antibody 233S (antibody, V domains shown) VH: EVQLVESGGGLGQPGGSLRLSCAASGFKFKIFGMNWVRQAPGKGLEWVSYISSRSSIIYYADSVKGRFTISRDDATNSLFLQMNSLRDEDTAMYYCVRDYNLIDFVWGSLFDYWGQGILVTVSS VL: AIRMTQSPSSLSASTGDSVTITCRASQNIASYLAWYQQIPGKAPKLLIYVASTLQSGVPSRFSGSGSGTDFTLTISSLQSEDFATYYCQQYYRYPPTFGQGTKVEIK ? Its % inhibition of binding was 29.6
